The reported numbers originate from ChEMBL document CHEMBL4219167.

- System: Staphylococcus aureus
- METHOD_NOTES: Antibacterial activity against methicillin-resistant Staphylococcus aureus COL after 20 hrs by broth microdilution assay
- Format: functional
Each entry below carries its reported log10(MIC).
Give log10 of MIC, with MIC taken in µM.

Complete the entry with log10(MIC) for `CCCSSC(=S)N(CC)CC`
1.20

----------
- Test system: Yersinia pseudotuberculosis
- METHOD_NOTES: Antibacterial activity against Yersinia pseudotuberculosis P61 after 20 hrs by broth microdilution assay
- Type: functional
- RUN_PARAMETERS: P61, 20 h
Here the recorded MIC is given for each entry.

Look up and report measured MIC for this entry: `CCN(CC)C(=S)SSC`
> 32 µM

Query MIC for `CCCCCCCCSSC(=S)N(CC)CC`
> 32 µM

Continue with the compound presented below.
Provide one value: measured MIC of `CCCSSC(=S)N(CC)CC`
> 32 µM
